system: PDGFR; test: Rat A10 cell proliferation assay; type: cell-based; details: Table 1; Rat A10 cells, recombinant rat PDGF-BB, CellTiter-Glo after 68 hours
Just a reminder that ties go to label 0: only IC50 strictly below 100 nM counts as label 1.

compound: O=C(N[C@@H]1c2ccccc2C[C@@H]1O)c1ccc(F)c(NC(=O)c2cnc3ccccn23)c1
study_system: PDGFR
discrete_label: label 1
//
compound: O=C(N[C@@H]1c2ccccc2C[C@@H]1O)c1ccc(F)c(NC(=O)c2cnc3cc(F)ccn23)c1
study_system: PDGFR
discrete_label: label 1
//
compound: Cc1ccc(C(=O)NC(CO)C(C)C)cc1NC(=O)c1cnc2ccccn12 (stereo not shown)
study_system: PDGFR
discrete_label: label 0
//
compound: O=C(N[C@@H]1c2cc(F)ccc2C[C@@H]1O)c1ccc(F)c(NC(=O)c2cnc3ccc(F)cn23)c1
study_system: PDGFR
discrete_label: label 0
//
compound: [2H]c1c([2H])c([2H])n2c(C(=O)Nc3cc(C(=O)N[C@@H]4c5ccccc5C[C@@H]4O)ccc3F)cnc2c1[2H]
study_system: PDGFR
discrete_label: label 1
//
compound: O=C(N[C@@H]1c2ccccc2C[C@@H]1O)c1ccc(F)c(NC(=O)c2cnc3ccc(F)cn23)c1
study_system: PDGFR
discrete_label: label 0
//
compound: Cc1ccn2c(C(=O)Nc3cc(C(=O)N[C@@H](CO)[C@@H](O)c4ccccc4)ccc3F)cnc2c1
study_system: PDGFR
discrete_label: label 1
//
compound: O=C(NC(CO)c1ccccc1)c1ccc(F)c(NC(=O)c2cnc3ccccn23)c1 (stereo not shown)
study_system: PDGFR
discrete_label: label 1
//
compound: Cc1ccc(C(=O)NCc2ccccc2N2CCC(O)C2)cc1NC(=O)c1cnc2ccccn12 (stereo not shown)
study_system: PDGFR
discrete_label: label 1
//
compound: COc1ccc2c(c1)[C@@H](NC(=O)c1ccc(F)c(NC(=O)c3cnc4ccc(C)cn34)c1)[C@@H](O)C2
study_system: PDGFR
discrete_label: label 0

Ask: Here's an entry: Cc1ccc(C(=O)N[C@H]2c3ccccc3C[C@H]2O)cc1NC(=O)c1cnc2ccccn12 . Is its IC50 below 100 nM?
Reply: label 1

Ask: Quick one: O=C(N[C@H]1c2ccccc2C[C@@H]1O)c1ccc(F)c(NC(=O)c2cnc3ccccn23)c1
Reply: label 1

Ask: Quick one: O=C(NC[C@@H]1CCCC[C@H]1O)c1ccc(F)c(NC(=O)c2cnc3ccccn23)c1
Reply: label 1

Ask: Quick one: Cc1ccc2ncc(C(=O)Nc3cc(C(=O)N[C@@H]4c5cc(F)ccc5C[C@@H]4O)ccc3F)n2c1
Reply: label 0

Ask: Quick one: Cn1nccc1-c1ccn2c(C(=O)Nc3cc(C(=O)N[C@H](CO)[C@H](O)c4ccccc4)ccc3F)cnc2c1
Reply: label 0

Ask: Quick one: Cc1ccn2c(C(=O)Nc3cc(C(=O)N[C@H]4CCCC[C@@H]4O)ccc3F)cnc2c1
Reply: label 1

----------
system: PDGFR; test: Rat A10 cell proliferation assay; assay type: cell-based; conditions: Table 1; Rat A10 cells, recombinant rat PDGF-BB, CellTiter-Glo after 68 hours
metric: IC50
Write the numeric value and append its unit.

molecule: Cn1nccc1-c1ccn2c(C(=O)Nc3cc(C(=O)NC4Cc5ccccc5C4O)ccc3F)cnc2c1 (centres unmarked)
metric: IC50
result: 0.032 µM
--
molecule: Cc1ccc(C(=O)N[C@@H]2c3ccccc3C[C@@H]2O)cc1NC(=O)c1cnc2ccccn12
metric: IC50
result: 0.029 µM
--
molecule: O=C(N[C@H]1CCCC[C@@H]1O)c1ccc(F)c(NC(=O)c2cnc3ccccn23)c1
metric: IC50
result: 0.07 µM
--
molecule: COC[C@H](NC(=O)c1ccc(F)c(NC(=O)c2cnc3ccccn23)c1)[C@@H](O)c1ccccc1 [F117]
metric: IC50
result: 0.013 µM
--
molecule: O=C(NC[C@@H](O)c1ccccc1F)c1ccc(F)c(NC(=O)c2cnc3ccccn23)c1
metric: IC50
result: 0.06 µM
--
molecule: C[C@@]1(O)CCCC[C@@H]1NC(=O)c1ccc(F)c(NC(=O)c2cnc3ccccn23)c1
metric: IC50
result: 0.187 µM
--
molecule: COC[C@H](NC(=O)c1ccc(F)c(NC(=O)c2cnc3cc(-c4ccnn4C)ccn23)c1)[C@@H](O)c1ccccc1
metric: IC50
result: 0.014 µM

Moving on to the next molecule.
Ask: Tell me reported IC50 for O=C(N[C@@H]1CCCCC[C@H]1O)c1ccc(F)c(NC(=O)c2cnc3ccccn23)c1 , tested with PDGFR.
Reply: 0.079 µM
